// each record: one item and its Ki for benzodiazepine receptor (^3 H-diazepam binding sites, rat brain membranes)
The reply should be a number in µM, with the unit left off.

Past entries and their recorded results:
Query "Cn1cc(CCC2CCNCC2)c2ccccc21" yields Ki of 90

Query "c1ccc(Cn2cc(CCC3CCNCC3)c3ccccc32)cc1" yields Ki of 33

Query "COc1ccc2[nH]cc(CCC3CCNCC3)c2c1" yields Ki of 40

Next:
Query "Clc1ccc2[nH]cc(CCC3CCNCC3)c2c1" yields Ki of 37

---

# assay: Acute toxicity in mice (LD50)
# Assay type: in vivo
# experimental_context: mouse, in vivo, po, orally, read-out: Acute toxicity LD50, orally
In this section we review reported LD50 values for a set of compounds.
The reply should be a number in mg/kg, with the unit left off.

Past entries and their recorded results:
Query Clc1ccc2[nH]cc(CCC3CCNCC3)c2c1 [Example 12] yields LD50 of 625

Query c1ccc2c(CCCC3CCNCC3)c[nH]c2c1 [Example 13, [(Indolyl-3)-3 propyl]-4 piperidine] yields LD50 of 600

Query c1ccc(Cn2cc(CCC3CCNCC3)c3ccccc32)cc1 [Example 14] yields LD50 of 525

Others:
Query COc1ccc2[nH]cc(CCC3CCNCC3)c2c1 [Example 8] yields LD50 of 675

---

# assay: Acute toxicity in mice (LD50)
# Format: in vivo
# experimental_context: mouse, in vivo, iv, I.V., read-out: Acute toxicity LD50, I.V.
Values of LD50 strictly less than 40 mg/kg map to 1, and values of at least 40 mg/kg map to -1.

Below are worked cases with known answers.
Request: Please determine if O=C(CC1CCNCC1)c1c[nH]c2ccccc12 [Example 1, Indolyl-3-(piperidyl-4-methyl)ketone] is below 40 mg/kg in terms of LD50.
Response: -1

Request: Please determine if Clc1ccc2[nH]cc(CCC3CCNCC3)c2c1 [Example 12] is below 40 mg/kg in terms of LD50.
Response: -1

Request: Please determine if c1ccc2c(CCCC3CCNCC3)c[nH]c2c1 [Example 13, [(Indolyl-3)-3 propyl]-4 piperidine] is below 40 mg/kg in terms of LD50.
Response: 1

Next compound, please.
Request: Please determine if c1ccc(Cn2cc(CCC3CCNCC3)c3ccccc32)cc1 [Example 14] is below 40 mg/kg in terms of LD50.
Response: 1

---

# assay_target: benzodiazepine receptor (^3 H-diazepam binding sites, rat brain membranes)
assay_readout: Ki

Past entries and their recorded results:
Query "O=C(CC1CCNCC1)c1c[nH]c2ccccc12" yields Ki of 43 µM

Query "c1ccc2c(CC3CCNCC3)c[nH]c2c1" yields Ki of 90 µM

Query c1ccc2c(CCC3CCNCC3)c[nH]c2c1 [Example 10, [(Indolyl-3)-2 ethyl]-4 piperidine] yields Ki of 64 µM

Next:
Query c1ccc2c(CCCC3CCNCC3)c[nH]c2c1 [Example 13, [(Indolyl-3)-3 propyl]-4 piperidine] yields Ki of 70 µM
